Below are pIC50 values measured for Sodium-dependent dopamine transporter (Rattus norvegicus).
pIC50 here: minus log base 10 of the concentration, concentration in moles per litre.

Param request: pIC50 | system Sodium-dependent dopamine transporter (Rattus norvegicus) | item COC(=O)[C@H]1[C@@H](c2ccccc2)C[C@@H]2CC[C@H]1N2C [TROPARIL]
7.64

Param request: pIC50 | system Sodium-dependent dopamine transporter (Rattus norvegicus) | item CN1[C@H]2CC[C@@H]1[C@@H](c1ncc(-c3cccc([N+](=O)[O-])c3)s1)[C@@H](c1ccc(Cl)cc1)C2
8.30

Param request: pIC50 | system Sodium-dependent dopamine transporter (Rattus norvegicus) | item CN1[C@H]2CC[C@@H]1[C@@H](c1ncc(-c3ccccc3)s1)[C@@H](c1ccc(Cl)cc1)C2
8.24

Param request: pIC50 | system Sodium-dependent dopamine transporter (Rattus norvegicus) | item CN1[C@H]2CC[C@@H]1[C@@H](c1ncc(-c3ccc(Cl)cc3)s1)[C@@H](c1ccc(Cl)cc1)C2
7.70

Param request: pIC50 | system Sodium-dependent dopamine transporter (Rattus norvegicus) | item Cc1ccc([C@H]2C[C@@H]3CC[C@H]([C@H]2c2ncc(-c4cccc([N+](=O)[O-])c4)s2)N3C)cc1
8.40

Param request: pIC50 | system Sodium-dependent dopamine transporter (Rattus norvegicus) | item CN1[C@H]2CC[C@@H]1[C@@H](c1ncc(-c3ccc([N+](=O)[O-])cc3)s1)[C@@H](c1ccc(Cl)cc1)C2
7.70

Param request: pIC50 | system Sodium-dependent dopamine transporter (Rattus norvegicus) | item Cc1ccc([C@H]2C[C@@H]3CC[C@H]([C@H]2c2ncc(-c4ccc(Cl)c(Cl)c4)s2)N3C)cc1
6.99

Param request: pIC50 | system Sodium-dependent dopamine transporter (Rattus norvegicus) | item Cc1ccc([C@H]2C[C@@H]3CC[C@H]([C@H]2c2ncc(-c4ccc(F)cc4)s2)N3C)cc1
7.92

----------
I'd appreciate it if you could supply pKi values for the items below.
- System: Sodium-dependent serotonin transporter (Homo sapiens)
- Sequence (P31645 whole entry): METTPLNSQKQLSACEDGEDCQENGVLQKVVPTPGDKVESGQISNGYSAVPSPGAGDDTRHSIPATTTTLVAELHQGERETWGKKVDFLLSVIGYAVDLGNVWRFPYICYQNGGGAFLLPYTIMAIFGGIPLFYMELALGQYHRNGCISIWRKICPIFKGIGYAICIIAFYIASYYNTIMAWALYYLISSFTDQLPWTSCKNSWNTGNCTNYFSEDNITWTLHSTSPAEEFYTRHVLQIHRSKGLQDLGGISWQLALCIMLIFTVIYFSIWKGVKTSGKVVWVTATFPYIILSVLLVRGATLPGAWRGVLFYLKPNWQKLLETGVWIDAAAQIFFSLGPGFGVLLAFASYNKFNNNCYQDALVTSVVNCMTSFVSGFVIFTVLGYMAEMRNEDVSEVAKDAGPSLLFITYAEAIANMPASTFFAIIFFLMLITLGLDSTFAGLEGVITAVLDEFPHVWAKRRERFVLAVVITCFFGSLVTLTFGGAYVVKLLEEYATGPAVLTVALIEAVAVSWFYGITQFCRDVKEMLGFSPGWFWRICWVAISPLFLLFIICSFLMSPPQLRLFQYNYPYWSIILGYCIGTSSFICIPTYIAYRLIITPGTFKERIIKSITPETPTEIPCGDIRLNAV
pKi here: minus log base 10 of the concentration, concentration in moles per litre.

Param request: pKi | system Sodium-dependent serotonin transporter (Homo sapiens) | item Cc1ccc([C@H]2C[C@@H]3CC[C@H]([C@H]2c2ncc(-c4ccc(Cl)cc4)s2)N3C)cc1
5.88

Param request: pKi | system Sodium-dependent serotonin transporter (Homo sapiens) | item CN1[C@H]2CC[C@@H]1[C@@H](c1ncc(-c3ccc(Cl)cc3)s1)[C@@H](c1ccc(Cl)cc1)C2
5.62

Param request: pKi | system Sodium-dependent serotonin transporter (Homo sapiens) | item COc1ccc(-c2cnc([C@H]3[C@@H](c4ccc(C)cc4)C[C@@H]4CC[C@H]3N4C)s2)cc1
5.44

Param request: pKi | system Sodium-dependent serotonin transporter (Homo sapiens) | item CN1[C@H]2CC[C@@H]1[C@@H](c1ncc(-c3ccccc3)s1)[C@@H](c1ccc(Cl)cc1)C2
5.57

Param request: pKi | system Sodium-dependent serotonin transporter (Homo sapiens) | item Cc1ccc([C@H]2C[C@@H]3CC[C@H]([C@H]2c2ncc(-c4cccc([N+](=O)[O-])c4)s2)N3C)cc1
6.24

Param request: pKi | system Sodium-dependent serotonin transporter (Homo sapiens) | item Cc1ccc([C@H]2C[C@@H]3CC[C@H]([C@H]2c2ncc(-c4cccc(Br)c4)s2)N3C)cc1
6.06

Param request: pKi | system Sodium-dependent serotonin transporter (Homo sapiens) | item Cc1ccc([C@H]2C[C@@H]3CC[C@H]([C@H]2c2ncc(-c4ccc(F)cc4)s2)N3C)cc1
5.76

Param request: pKi | system Sodium-dependent serotonin transporter (Homo sapiens) | item CN1[C@H]2CC[C@@H]1[C@@H](c1ncc(-c3ccc([N+](=O)[O-])cc3)s1)[C@@H](c1ccc(Cl)cc1)C2
5.74

Param request: pKi | system Sodium-dependent serotonin transporter (Homo sapiens) | item CN1[C@H]2CC[C@@H]1[C@@H](c1ncc(-c3cccc([N+](=O)[O-])c3)s1)[C@@H](c1ccc(Cl)cc1)C2
6.13

Param request: pKi | system Sodium-dependent serotonin transporter (Homo sapiens) | item Cc1ccc([C@H]2C[C@@H]3CC[C@H]([C@H]2c2ncc(-c4ccc(Br)cc4)s2)N3C)cc1
5.73

Param request: pKi | system Sodium-dependent serotonin transporter (Homo sapiens) | item CN1[C@H]2CC[C@@H]1[C@@H](c1ncc(-c3ccc(F)cc3)s1)[C@@H](c1ccc(Cl)cc1)C2
6.19

Param request: pKi | system Sodium-dependent serotonin transporter (Homo sapiens) | item COc1ccc(-c2cnc([C@H]3[C@@H](c4ccc(Cl)cc4)C[C@@H]4CC[C@H]3N4C)s2)cc1
5.28

Param request: pKi | system Sodium-dependent serotonin transporter (Homo sapiens) | item COc1ccc(-c2cnc([C@H]3[C@@H](c4ccc(Cl)cc4)C[C@@H]4CC[C@H]3N4C)s2)cc1OC
5.44

Param request: pKi | system Sodium-dependent serotonin transporter (Homo sapiens) | item CN1[C@H]2CC[C@@H]1[C@@H](c1ncc(-c3ccc(Cl)c(Cl)c3)s1)[C@@H](c1ccc(Cl)cc1)C2
5.57

Param request: pKi | system Sodium-dependent serotonin transporter (Homo sapiens) | item COc1ccc(-c2cnc([C@H]3[C@@H](c4ccc(C)cc4)C[C@@H]4CC[C@H]3N4C)s2)cc1OC
5.11

Param request: pKi | system Sodium-dependent serotonin transporter (Homo sapiens) | item Cc1ccc([C@H]2C[C@@H]3CC[C@H]([C@H]2c2ncc(-c4ccc([N+](=O)[O-])cc4)s2)N3C)cc1
5.79

Param request: pKi | system Sodium-dependent serotonin transporter (Homo sapiens) | item CN1[C@H]2CC[C@@H]1[C@@H](c1ncc(-c3ccc(Br)cc3)s1)[C@@H](c1ccc(Cl)cc1)C2
5.24

Param request: pKi | system Sodium-dependent serotonin transporter (Homo sapiens) | item Cc1ccc([C@H]2C[C@@H]3CC[C@H]([C@H]2c2ncc(-c4ccc(Cl)c(Cl)c4)s2)N3C)cc1
5.53

Param request: pKi | system Sodium-dependent serotonin transporter (Homo sapiens) | item CN1[C@H]2CC[C@@H]1[C@@H](c1ncc(-c3cccc(Br)c3)s1)[C@@H](c1ccc(Cl)cc1)C2
5.82

----------
Below are pKi values measured for Sodium-dependent serotonin transporter (Rattus norvegicus, UniProt P31652).
pKi here: minus log base 10 of the concentration, concentration in moles per litre.

Read off the recorded pKi for Cc1ccc([C@H]2C[C@@H]3CC[C@H]([C@H]2c2ncc(-c4ccc([N+](=O)[O-])cc4)s2)N3C)cc1
5.77

Read off the recorded pKi for CN1[C@H]2CC[C@@H]1[C@@H](c1ncc(-c3ccc(Br)cc3)s1)[C@@H](c1ccc(Cl)cc1)C2
6.08

Read off the recorded pKi for Cc1ccc([C@H]2C[C@@H]3CC[C@H]([C@H]2c2ncc(-c4ccc(F)cc4)s2)N3C)cc1
5.65

Read off the recorded pKi for CN1[C@H]2CC[C@@H]1[C@@H](c1ncc(-c3cccc([N+](=O)[O-])c3)s1)[C@@H](c1ccc(Cl)cc1)C2
6.52

----------
- System: Sodium-dependent noradrenaline transporter (Homo sapiens, UniProt P23975)
- Sequence (P23975 whole entry): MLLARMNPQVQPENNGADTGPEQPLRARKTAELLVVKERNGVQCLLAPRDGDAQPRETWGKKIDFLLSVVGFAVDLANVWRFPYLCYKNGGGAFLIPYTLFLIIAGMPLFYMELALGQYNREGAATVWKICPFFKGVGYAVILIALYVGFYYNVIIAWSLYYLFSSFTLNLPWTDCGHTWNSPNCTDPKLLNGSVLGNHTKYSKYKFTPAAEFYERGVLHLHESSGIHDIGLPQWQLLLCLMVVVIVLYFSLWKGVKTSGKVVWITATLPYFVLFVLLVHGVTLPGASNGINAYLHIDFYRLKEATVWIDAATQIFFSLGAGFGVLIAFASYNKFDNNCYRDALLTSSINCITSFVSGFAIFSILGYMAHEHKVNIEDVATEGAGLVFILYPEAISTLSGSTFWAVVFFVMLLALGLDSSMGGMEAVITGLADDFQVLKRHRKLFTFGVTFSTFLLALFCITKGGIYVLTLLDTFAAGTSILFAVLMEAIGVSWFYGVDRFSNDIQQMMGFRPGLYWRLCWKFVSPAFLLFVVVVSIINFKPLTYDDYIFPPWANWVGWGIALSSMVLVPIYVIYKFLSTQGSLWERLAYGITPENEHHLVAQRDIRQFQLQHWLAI
- Experiment notes: Inhibition of human NET in HEK cells assessed as [3H]norepinephrine reuptake
Recorded endpoint: pIC50
pIC50 here: minus log base 10 of the concentration, concentration in moles per litre.

Param request: pIC50 | system Sodium-dependent noradrenaline transporter (Homo sapiens, UniProt P23975) | item COc1ccc(-c2cnc([C@H]3[C@@H](c4ccc(C)cc4)C[C@@H]4CC[C@H]3N4C)s2)cc1
5.74

Param request: pIC50 | system Sodium-dependent noradrenaline transporter (Homo sapiens, UniProt P23975) | item CN1[C@H]2CC[C@@H]1[C@@H](c1ncc(-c3ccccc3)s1)[C@@H](c1ccc(Cl)cc1)C2
6.12

Param request: pIC50 | system Sodium-dependent noradrenaline transporter (Homo sapiens, UniProt P23975) | item Cc1ccc([C@H]2C[C@@H]3CC[C@H]([C@H]2c2ncc(-c4ccc(Cl)c(Cl)c4)s2)N3C)cc1
5.40

----------
I'd appreciate it if you could supply pIC50 values for the items below.
pIC50 here: minus log base 10 of the concentration, concentration in moles per litre.

Param request: pIC50 | system Sodium-dependent dopamine transporter (Rattus norvegicus) | item CN1[C@H]2CC[C@@H]1[C@@H](c1ncc(-c3ccc(F)cc3)s1)[C@@H](c1ccc(Cl)cc1)C2
8.22

Param request: pIC50 | system Sodium-dependent dopamine transporter (Rattus norvegicus) | item COc1ccc(-c2cnc([C@H]3[C@@H](c4ccc(Cl)cc4)C[C@@H]4CC[C@H]3N4C)s2)cc1
7.85

Param request: pIC50 | system Sodium-dependent dopamine transporter (Rattus norvegicus) | item COc1ccc(-c2cnc([C@H]3[C@@H](c4ccc(C)cc4)C[C@@H]4CC[C@H]3N4C)s2)cc1OC
7.08

Param request: pIC50 | system Sodium-dependent dopamine transporter (Rattus norvegicus) | item Cc1ccc([C@H]2C[C@@H]3CC[C@H]([C@H]2c2ncc(-c4ccc([N+](=O)[O-])cc4)s2)N3C)cc1
7.39

Param request: pIC50 | system Sodium-dependent dopamine transporter (Rattus norvegicus) | item CN1[C@H]2CC[C@@H]1[C@@H](c1ncc(-c3ccc(Cl)c(Cl)c3)s1)[C@@H](c1ccc(Cl)cc1)C2
6.36

Param request: pIC50 | system Sodium-dependent dopamine transporter (Rattus norvegicus) | item Cc1ccc([C@H]2C[C@@H]3CC[C@H]([C@H]2c2ncc(-c4cccc(Br)c4)s2)N3C)cc1
8.00

Param request: pIC50 | system Sodium-dependent dopamine transporter (Rattus norvegicus) | item CN1[C@H]2CC[C@@H]1[C@@H](c1ncc(-c3cccc(Br)c3)s1)[C@@H](c1ccc(Cl)cc1)C2
7.74

Param request: pIC50 | system Sodium-dependent dopamine transporter (Rattus norvegicus) | item COc1ccc(-c2cnc([C@H]3[C@@H](c4ccc(C)cc4)C[C@@H]4CC[C@H]3N4C)s2)cc1
7.82

Param request: pIC50 | system Sodium-dependent dopamine transporter (Rattus norvegicus) | item Cc1ccc([C@H]2C[C@@H]3CC[C@H]([C@H]2c2ncc(-c4ccc(Cl)cc4)s2)N3C)cc1
7.66

Param request: pIC50 | system Sodium-dependent dopamine transporter (Rattus norvegicus) | item COc1ccc(-c2cnc([C@H]3[C@@H](c4ccc(Cl)cc4)C[C@@H]4CC[C@H]3N4C)s2)cc1OC
7.19
